test system: HS 578T breast; assay: NCI tumour cell line growth inhibition, 48 h
Listing of entries alongside the reported TGI.
endpoint-label: TGI (µM)

>>> value_observed("[Cl][Hg][c]1ccc(Cl)s1")
73.7
>>> value_observed("C[C@]12CC[C@@H]3c4cc(O)c(O)cc4CC[C@H]3[C@@H]1CC[C@@H]2O")
17.5
>>> value_observed("CCC1CCN=C(NS(=O)(=O)c2cc(C)c(Cl)cc2S)N1 (stereo not given)")
92
>>> value_observed("O=C(NC(=O)c1ccccc1[N+](=O)[O-])Nc1ccc(Oc2ncc(Cl)cn2)c([N+](=O)[O-])c1")
0.636

====

tested on: HCT-116 colon; assay: NCI tumour cell line growth inhibition, 48 h
Listing of entries alongside the reported TGI.
endpoint-label: TGI

>>> value_observed("Cc1c2c(OCC(O)CN3CCN(c4ccccc4)CC3)nn(C)c(=O)c2c(C)n1-c1ccccc1 (stereo not given)")
"31.3 µM"
>>> value_observed("CCCCCCCCC/C(=N\\NC(=O)c1ccncc1)c1ccc(O)c(O)c1O")
"12.8 µM"
>>> value_observed("O=C(CCCN1CCC(Nc2ccccc2)(c2nnnn2C2CCCCC2)CC1)c1ccc(F)cc1")
"16.4 µM"
>>> value_observed("CCOC(=O)C1(C(=O)OCC)C[C@@H](C)[C@@H](O)C1")
"> 100 µM"
>>> value_observed("COC(=O)C1=COC(OC2OC(CO)C(O)C(O)C2O)C2C3CN4CCc5c([nH]c6ccccc56)C4(CC12)O3 (stereo not given)")
"> 100 µM"
>>> value_observed("CCC1CCN=C(NS(=O)(=O)c2cc(C)c(Cl)cc2S)N1 (stereo not given)")
"94.6 µM"
>>> value_observed("C[C@]12CC[C@@H]3c4cc(OC(F)F)c(OS(N)(=O)=O)cc4CC[C@H]3[C@@H]1CC[C@@H]2OS(N)(=O)=O")
"13.9 µM"
>>> value_observed("CC(=O)C1Cn2c(=O)c3cc4ccccc4cc3c(=O)n2C=C1C (stereo not given)")
"> 100 µM"
>>> value_observed("CCCCNC(=O)C1C(=O)N(CCCC)C(=O)/C1=N\\N (stereo not given)")
"> 100 µM"
>>> value_observed("CC1(Br)CC2OC3(Br)C=CC(C)(O)C2(CC1=O)C3(C)C (stereo not given)")
"> 100 µM"

====

system: COLO 205 colon; assay: NCI tumour cell line growth inhibition, 48 h
Tick yes if TGI is 30 µM or greater. Tick no if TGI is less than 30 µM.

>>> class_name("CCCCCCCCC/C(=N\\NC(=O)c1ccncc1)c1ccc(O)c(O)c1O")
"no"
>>> class_name("C/C(=N\\NC(=S)N(C)C)c1nc2ncccc2[nH]1")
"no"
>>> class_name("O=[N+]([O-])c1ccc(Oc2c(Cl)cc(S(=O)(=O)/N=C(\\NO)Nc3ccc(Cl)cc3)cc2Cl)c(Cl)c1")
"yes"
>>> class_name("C[C@@H]1CCC([C@@H](C)[C@H]2CC[C@H]3[C@@H]4CC[C@H]5C[C@@H](O)CC[C@]5(C)[C@H]4CC[C@]23C)=NC1")
"yes"
>>> class_name("CCOC(=O)c1cc2c3c(c(C(C)=O)c(O)c2[nH]1)N(C(C)=O)CC3")
"yes"
>>> class_name("Cc1ccc(C(=O)Cn2c(C(=O)/C=C/c3cccs3)nc3ccccc32)cc1")
"yes"
>>> class_name("CCCn1cc2c(SC)nc(SC)nc2n1")
"yes"
>>> class_name("O=C(CC(C(=O)c1cccs1)c1ccsc1)c1ccccc1 (stereo not drawn)")
"yes"
>>> class_name("O=C(SC1=NCCN1)c1cccc2ccccc12")
"yes"
>>> class_name("CO[C@H]1C[C@H](O[C@H]2CC[C@]3(C=O)[C@H]4CC[C@]5(C)[C@@H](C6=CC(=O)OC6)CC[C@]5(O)[C@@H]4CC[C@]3(O)C2)O[C@H](C)[C@H]1O[C@@H]1O[C@H](CO)[C@@H](O)[C@H](O)[C@H]1O")
"no"
>>> class_name("COC(=O)C1=C(OC(=O)/C(=C/c2ccccc2)c2ccc(Cl)cc2)C(C(=O)OC)[C@@]2(O)[C@@H](C(=O)OC)[C@H](C)C[C@@H]1[C@@H]2C(=O)OC (stereo partly drawn)")
"yes"
>>> class_name("Cc1cc(Nc2ncc3c(n2)N(C)C(=O)N(c2cc(NC(=O)c4cccc(C(F)(F)F)c4)ccc2C)C3)n(C)n1")
"no"
>>> class_name("NC(=O)c1cccc(N=c2oc3ccc(Br)cc3cc2-c2nc3ccccc3[nH]2)c1")
"yes"
>>> class_name("C=C(C)[C@@]1(O)CCCC[C@@H]1CC(Sc1ccccc1)Sc1ccccc1")
"yes"
>>> class_name("CN(C)CCCSc1nc2c(c(=N)n1-c1ccccc1)c(=S)n(-c1ccccc1)c(=S)n2-c1ccccc1")
"no"
>>> class_name("CCOC(=O)C(C(=O)OCC)c1ccc([N+](=O)[O-])o1")
"no"
>>> class_name("C=CCN1COc2c(cc3c4c(cccc24)C(=O)O3)C1")
"yes"
>>> class_name("O=C(OCc1ccc([N+](=O)[O-])cc1)N1c2ccccc2[C@@]23O[C@]24CCC[C@H]3C#C/C=C\\C#C[C@H]14")
"yes"
